Biological target: human EHMT2 913-1193 (Homo sapiens)
Construct: recombinant purified human EHMT2 913-1193, Viva; purchased Viva
Sequence (Q96KQ7 913-1193): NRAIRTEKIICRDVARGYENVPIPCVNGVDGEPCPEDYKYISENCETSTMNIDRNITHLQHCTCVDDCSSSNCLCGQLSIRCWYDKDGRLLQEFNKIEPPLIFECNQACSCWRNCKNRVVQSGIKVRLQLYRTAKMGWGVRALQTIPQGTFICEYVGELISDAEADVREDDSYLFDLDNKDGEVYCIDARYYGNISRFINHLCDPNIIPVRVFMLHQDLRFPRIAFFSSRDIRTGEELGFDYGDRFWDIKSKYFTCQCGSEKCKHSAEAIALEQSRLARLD
Experiment: EHMT2 enzyme assay on histone peptide substrate (EHMT2 PEP)
Format: biochemical
Conditions: Table III; read-out: EHMT2 PEP (IC50 μM)
PROPERTY NAME: IC50

INSERT INTO measurements (molecule, reported_measurement) VALUES
  ('COc1ccc(Nc2ccc3ncn(C)c3n2)cc1OCCCN1CCCC1', '> 10 µM'),
  ('CNc1cc(Nc2cc(OCCCN3CCCC3)c(OC)cn2)ncn1', '1 to 10 µM'),
  ('CNc1cc(C)nc(Nc2ccc(OC)c(OCC3CCN(C4CCC4)C3)c2)n1 (stereo not shown)', '< 0.1 µM');

Now look at this one.
Value of measured IC50 for the entry `CNc1ccnc(N[C@@H]2CCC[C@H](OCCCN3CCCC3)C2)n1` : > 10 µM

The values you see were collected from patent US20210198277A1.
